Biological target: 3-keto-steroid reductase/17-beta-hydroxysteroid dehydrogenase 7 (Homo sapiens) (UniProt P56937)
Sequence (whole entry): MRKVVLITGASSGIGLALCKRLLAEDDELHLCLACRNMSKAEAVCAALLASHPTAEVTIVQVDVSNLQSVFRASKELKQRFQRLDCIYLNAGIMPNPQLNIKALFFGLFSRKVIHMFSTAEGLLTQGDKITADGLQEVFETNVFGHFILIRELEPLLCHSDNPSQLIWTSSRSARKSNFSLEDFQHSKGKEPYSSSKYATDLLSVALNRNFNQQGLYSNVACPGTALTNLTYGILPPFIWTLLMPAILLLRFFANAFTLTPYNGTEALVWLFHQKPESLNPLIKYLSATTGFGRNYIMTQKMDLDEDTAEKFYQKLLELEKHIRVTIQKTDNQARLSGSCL
Conditions: HEK293, at 3 µM
Description: Inhibition of human 17beta-HSD7 expressed in HEK293 cells assessed as inhibition of reduction of [14C]estrone into [14C]estradiol at 3 uM after 7 hrs
For each entry below, report its inhibition value.
Quick note: give the figure in %, leave out the unit.

// query Consider the compound `C[C@]12CCC(=O)N[C@@H]1CC[C@@H]1[C@@H]2CC[C@]2(C)[C@@H](N(C(=O)c3ccccc3)c3ccccc3)CC[C@@H]12` and give its recorded inhibition.
// result 64.1

// query # return recorded inhibition for entry `C=CC[C@@]1(O)CC[C@H]2[C@@H]3CC[C@H]4N(C)C(=O)CC[C@]4(C)[C@H]3CC[C@@]21C`
// result 4.9

// query Please give measured inhibition of the following entry: `CN1C(=O)CC[C@]2(C)[C@H]3CC[C@]4(C)[C@@H](N(C=O)Cc5ccccc5)CC[C@H]4[C@@H]3CC[C@@H]12`
// result 77.6
